- Tested on: M17-TAU P301L cells
- experimental-details: Tau-induced toxicity experiment: LDH leakage of retinoic acid incubated M17-TAU P301L cells
- Format: cell-based
- condition-context: Homo sapiens, Neuroblastoma cell, 168 h; reduction of LDH activity of retinoic acid incubated M17-TAU P301L neuroblastoma cells, 7 days
pEC50: −log10 of the molar value.
metric: pEC50

structure_string=O=C(NCCc1c[nH]c2ccc(Cl)cc12)c1ccc(Cc2ccccc2C(F)(F)F)cc1 numeric_result=7.10
structure_string=O=C(NCCc1c[nH]c2ccc(Cl)cc12)c1cccc(CNC2CCCCC2)c1 numeric_result=6.14
structure_string=O=C(NCCc1c[nH]c2ccc(Cl)cc12)c1cccc(Cc2ccco2)c1 numeric_result=7.77
structure_string=O=C(NCCc1c[nH]c2ccc(Cl)cc12)c1ccc(Nc2ccccc2)cc1 numeric_result=7.12
structure_string=Cc1ccccc1Cc1ccc(C(=O)NCCc2c[nH]c3ccc(Cl)cc23)cc1 numeric_result=6.43
structure_string=O=C(NCCc1c[nH]c2ccc(Cl)cc12)c1cccc(Oc2ccccc2)c1 numeric_result=6.62
structure_string=O=C(NCCc1c[nH]c2ccc(Cl)cc12)c1ccc(Cc2ccc(F)cc2)cc1 numeric_result=7.07
structure_string=Cc1cccc(Cc2cccc(C(=O)NCCc3c[nH]c4ccc(Cl)cc34)c2)c1 numeric_result=7.22
structure_string=O=C(NCCc1c[nH]c2ccc(Cl)cc12)c1ccc(CNCC2CCCCC2)cc1 numeric_result=6.77
